These entries and their values trace back to patent US20250089709A1.

# Tested on: B16-F10 cell line
# assayComment: In vitro cytotoxicity assay (MTS)
# Assay type: cell-based
# assayConditions: Mus musculus, 48 h, B16-F10 cells, 2 days incubation, read-out: IC50 (half inhibitory concentration, cell viability)
quantity: IC50 (mM)
Respond with the bare value in mM.

Q: Tell me measured IC50 for CC/C=C\CC1C(=O)CCC1CC(=O)OC (racemic) [MeJ, methyl jasmonate] please.
Ans: 2.2
